System: PPARg homodimer (NR concentration 180 nM)
Test: PBM binding z-score (relative to random genomic background probes); higher = stronger binding; sequences stand for … in GC…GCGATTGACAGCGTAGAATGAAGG
QUANTITY: PBM binding z-score

GCTGCTAAGTCAGGTTGGTCAGCTAACGGGTACG    -0.201
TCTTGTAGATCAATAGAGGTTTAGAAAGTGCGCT    -0.539
CTACCAGGGTGAACAAGGTCGTTGATTACTATTC    1.61
AGTCAAAGTTCACTAGGTAACGAAAGATTCAGCT    2.81
CGTCAAAGTTCAACTAAGGTAACATAAAGCACGC    3.27
CCTGCAAGGTCATGGTCAGCTAATCTACAGTATG    3.29
CCTACTGCGCCAAAGGTCATTGATTCCAATGCTC    3.34
ACCCGGAGGACAAAGGTCAGAGCTACGCCAGTGA    2.98
AGTCAAAGTTCTCTAGGTAACGTAAGATTCAGCT    0.225
CCTTACGGGTCACTGACAGGTTTTAGCATTTGGA    2.26
CCGAATGGGGCATAAGGTTACCATAAGCCAGCCC    0.844
ATATGTAGGTTACATCCGGGTCATGCAGGCTATG    1.38

* * *

The following sequences are listed with their measured PBM binding z-score values.
Test system: LXRb:RXRa (NR concentration 270 nM, RXRa partner concentration 90 nM)
Test: PBM binding z-score (relative to random genomic background probes); higher = stronger binding; sequences stand for … in GC…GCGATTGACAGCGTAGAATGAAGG
QUANTITY: PBM binding z-score

GCATATAGGTAATACATGGTGAAAGTCCGATTGT    -0.279
AGAACGAGGGCAATGAGTTGATCGCACGGGTGGC    -0.452
CGTCAACGTTCAAGGTAACGTAACAGAAAGCAGC    -0.129
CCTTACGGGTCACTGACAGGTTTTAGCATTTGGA    3.31
CCTCGGAAGACAACAGGAGGTCAGAGCTGCCAGA    1.31
GAAACGAGGGCAAAGTTGATAGCATCTGTCGACG    1.02

* * *

System: RARa:RXR (NR concentration 270 nM, RXRa partner concentration 90 nM)
Assay: PBM binding z-score (relative to random genomic background probes); higher = stronger binding; sequences stand for … in GC…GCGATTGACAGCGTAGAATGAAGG
The following sequences are listed with their measured PBM binding z-score values.
QUANTITY: PBM binding z-score

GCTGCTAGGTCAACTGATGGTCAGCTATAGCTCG    2.91
ATCGAAAGGTCGAAGGTGATTATACCCACCCGAA    4.03
AGTCAAGGTTCAGGACGAGGTAACGTAAAGCACG    1.95
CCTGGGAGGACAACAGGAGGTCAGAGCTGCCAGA    2.3
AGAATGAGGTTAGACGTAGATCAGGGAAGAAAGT    1.17
CCTACTGGGCCATTCAAAGGTCATTGATCATATG    5.19
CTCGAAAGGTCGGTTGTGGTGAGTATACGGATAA    1.81
AATACAGGGACACTAGGCCAGAGTAGGTACGAAT    -0.555
CCTCGGAGGACAGAAGGTCATAGCTGTCCGCTTT    3.55
GCAGACAGGGGAAACGCAGGTAACTCAGGGTGGC    -0.366
TCGAGTAGGTTAGTCGGTGCATTCAGCCAACATA    0.0978
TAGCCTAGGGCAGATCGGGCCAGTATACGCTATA    0.406
